Tested on: MDA-MB-231
PROCEDURE SUMMARY: Real time cell proliferation, IncuCyte ZOOM, 72 hours
Assay type: cell-based
MEASUREMENT PARAMETERS: Homo sapiens, MDA-MB-231, 72 h
ASSAY METRIC: IC50 (µM)
Numbers only, in µM.

Here are 3 compounds together with their reported answers.
{"columns": ["COMPOUND", "TARGET OR TEST SYSTEM", "UNIT ABBREVIATION", "IC50"],
 "data": [
  ["COCCn1cc(Nc2cccn3c(C#Cc4cc(C(=O)Nc5ccc(CN6CCN(C)[C@@H](C)C6)c(C(F)(F)F)c5)ccc4C)cnc23)cn1 [Example 44]", "MDA-MB-231", "µM", 0.24],
  ["Cc1ccc(NC(=O)Nc2cccc(C(F)(F)F)c2)cc1C#Cc1cnc2c(Nc3cnn(C(C)C)c3)cccn12 [Example 83]", "MDA-MB-231", "µM", 5.7],
  ["Cc1ccc(NC(=O)Nc2ccc(CN3CCN(C)CC3)c(C(F)(F)F)c2)cc1C#Cc1cnc2c(Nc3cnn(C(C)C)c3)cccn12 [Example 82]", "MDA-MB-231", "µM", 1.55]
]}

Report IC50 for every entry below.
1. Cc1ccc(C(=O)Nc2cccc(C(F)(F)F)c2)cc1C#Cc1cnc2c(Nc3cnn(C4CCNCC4)c3)cccn12 [Example 11]
2. Cc1ccc(C(=O)Nc2ccc(CN3CCN(C)[C@@H](C)C3)c(C(F)(F)F)c2)cc1C#Cc1cnc2c(Nc3cnn(C(C)C)c3)cccn12 [Example 48]
3. CCN1CCN(Cc2ccc(NC(=O)c3ccc(C)c(C#Cc4cnc5c(Nc6ccc(C)cc6)cccn45)c3)cc2C(F)(F)F)CC1 [Example 25]
4. Cc1ccc(C(=O)Nc2ccc(CN3CCCN(C)CC3)c(C(F)(F)F)c2)cc1C#Cc1cnc2c(Nc3cnn(C(C)C)c3)cccn12 [Example 38]
5. Cc1ccc(C(=O)Nc2ccc(CN3CCN(C)CC3)c(C(F)(F)F)c2)cc1C#Cc1cnc2c(Nc3cccc(C(C)(C)O)n3)cccn12 [Example 64]

0.679
0.382
3.04
0.77
0.987

Report IC50 for every entry below.
1. CCN1CCN(Cc2ccc(NC(=O)c3ccc(C)c(C#Cc4cnc5c(Nc6ccc(C)cn6)cccn45)c3)cc2C(F)(F)F)CC1 [Example 21]
2. COCCn1cc(Nc2cccn3c(C#Cc4cc(C(=O)Nc5cc(-n6cnc(C)c6)cc(C(F)(F)F)c5)ccc4C)cnc23)cn1 [Example 71]
3. Cc1ccc(C(=O)Nc2ccc(CN3CCN(C)[C@H](C)C3)c(C(F)(F)F)c2)cc1C#Cc1cnc2c(Nc3cnn(CCCN(C)C)c3)cccn12 [Example 34]
4. Cc1ccc(C(=O)Nc2ccc(CN3CCC(N(C)C)C3)c(C(F)(F)F)c2)cc1C#Cc1cnc2c(Nc3cnn(CCCN(C)C)c3)cccn12 (stereo not shown) [Example 35]
5. CCN1CCN(Cc2ccc(NC(=O)c3ccc(C)c(C#Cc4cnc5c(Nc6cnn(CCOC)c6)cccn45)c3)cc2C(F)(F)F)CC1 [Example 69]

1.65
4.73
1.01
1.11
0.301

====

Give measured IC50 for each item. Keep answers brief.
Test system: GIST-T1
PROCEDURE SUMMARY: Cancer cell proliferation inhibition, cell viability after 72 hours
Type: cell-based
MEASUREMENT PARAMETERS: Homo sapiens, GISTT1, imatinib-sensitive
Answers are plain numbers, in nM.

Here are 4 compounds together with their reported answers.
{"columns": ["SMILES STRUCTURE", "UNIT ABBREVIATION", "IC50"],
 "data": [
  ["Cc1ccc(C(=O)Nc2cccc(C(F)(F)F)c2)cc1C#Cc1cnc2c(Nc3cnn(C4CCNCC4)c3)cccn12", "nM", 0.8],
  ["Cc1cn(-c2cc(NC(=O)c3ccc(C)c(C#Cc4cnc5c(Nc6cnn(CCN(C)C)c6)cccn45)c3)cc(C(F)(F)F)c2)cn1", "nM", 16.9],
  ["Cc1cn(-c2cc(NC(=O)c3ccc(C)c(C#Cc4cnc5c(Nc6cnn(C7CCN(C)CC7)c6)cccn45)c3)cc(C(F)(F)F)c2)cn1", "nM", 456],
  ["COCCn1cc(Nc2cccn3c(C#Cc4cc(C(=O)Nc5ccc(CN6CCN(C)CC6)c(C(F)(F)F)c5)ccc4C)cnc23)cn1", "nM", 0.13]
]}

Report IC50 for every entry below.
1. COCCn1cc(Nc2cccn3c(C#Cc4cc(C(=O)Nc5cc(C(C)(C)C)on5)ccc4C)cnc23)cn1
2. Cc1ccc(C(=O)Nc2cccc(C(F)(F)F)c2)cc1C#Cc1cnc2c(Nc3cnn(C4CCN(C)CC4)c3)cccn12

[17.4, 1]
